TGI for assorted molecules
# System: NCI-H23 lung
# assaySummary: NCI tumour cell line growth inhibition, 48 h

## Input Reported TGI, molecule COc1ccc(C(=O)O)c(Cc2cccc3ccccc23)c1 : ____
## Output > 100 µM

## Input Reported TGI, molecule COc1ccc(OC)c(/C=C/NC=O)c1 : ____
## Output > 100 µM

## Input Reported TGI, molecule C/C(=N\NC(=S)N1CC2CCC(CC2)C1)c1ccncn1 : ____
## Output 2.4 µM

## Input Reported TGI, molecule NCCc1nc(-c2nc(C(=O)O)cs2)cs1 : ____
## Output > 100 µM

## Input Reported TGI, molecule Nc1c(-c2ccc(Br)cc2)[n+]([O-])c2ccccc2[n+]1[O-] : ____
## Output > 100 µM

## Input Reported TGI, molecule COc1ccccc1N1C(=O)/C(=C\c2cccc(Oc3ccccc3)c2)SC1c1ccccc1 (stereo unspecified) : ____
## Output 98.1 µM
